# Tested on: Hepatotoxicity
# MEASUREMENT_CONTEXT: Liver; note: call rule not given here
MEASURED_ATTRIBUTE: HepSE_liver fatty
The answer should be a number; do not append a unit.

# count of solved cases: 6
CC(C)c1cccc(C(C)C)c1O [PROPOFOL]	0
O=C(O)CN(CCN(CC(=O)O)CC(=O)O)CC(=O)O [EDETIC ACID]	0
O=C(O)c1cc(-c2ccc(F)cc2F)ccc1O [DIFLUNISAL]	0
CC(C)(C(=O)c1cccnc1)c1cccnc1 [METYRAPONE]	0
CN1CC[C@]23c4c5ccc(O)c4O[C@H]2[C@@H](O)C=C[C@H]3[C@H]1C5 [MORPHINE]	0
NC[C@@H]1O[C@H](O[C@H]2[C@@H](O)[C@H](O[C@@H]3[C@@H](O)[C@H](N)C[C@H](N)[C@H]3O[C@H]3O[C@H](CN)[C@@H](O)[C@H](O)[C@H]3N)O[C@@H]2CO)[C@H](N)[C@@H](O)[C@@H]1O [FRAMYCETIN]	0

I would be grateful if you could share the reported HepSE_liver fatty for CO[C@H]1/C=C/O[C@@]2(C)Oc3c(C)c(O)c4c(c3C2=O)C2=NC3(CCN(CC(C)C)CC3)NC2=C(NC(=O)/C(C)=C\C=C\[C@H](C)[C@H](O)[C@@H](C)[C@@H](O)[C@@H](C)[C@H](OC(C)=O)[C@@H]1C)C4=O [RIFABUTIN] . 0

I would be grateful if you could share the reported HepSE_liver fatty for CNCCC=C1c2ccccc2CCc2ccccc21 [NORTRIPTYLINE] . 0

I would be grateful if you could share the reported HepSE_liver fatty for CNCCCC1c2ccccc2C=Cc2ccccc21 [PROTRIPTYLINE] . 0

---

# Tested on: Hepatotoxicity
Listed here: items and their measured HepSE_cholelithiasis.
The answer should be a number; do not append a unit.

CCCCC[C@H](O)/C=C/[C@H]1[C@H](O)CC(=O)[C@@H]1C/C=C\CCCC(=O)O	0
CC(C)(Oc1ccc(CCNC(=O)c2ccc(Cl)cc2)cc1)C(=O)O [BEZAFIBRATE]	1
COC(=O)Nc1nc2ccc(C(=O)c3ccccc3)cc2[nH]1	0
NCC1(CC(=O)O)CCCCC1	1

Query the reported HepSE_cholelithiasis for Hepatotoxicity; item: `C[C@H](O)C(=O)Nc1c(I)c(C(=O)NC(CO)CO)c(I)c(C(=O)NC(CO)CO)c1I` 0

---

Below are HepSE_hepatitis values recorded for Hepatotoxicity.
The answer should be a number; do not append a unit.

CCc1c2c(nc3ccc(OC(=O)N4CCC(N5CCCCC5)CC4)cc13)-c1cc3c(c(=O)n1C2)COC(=O)[C@]3(O)CC	0
CCC[C@H](N[C@@H](C)C(=O)N1[C@H](C(=O)O)C[C@@H]2CCCC[C@@H]21)C(=O)OCC	1
CO[C@H]1C[C@@H]2CC[C@@H](C)[C@@](O)(O2)C(=O)C(=O)N2CCCC[C@H]2C(=O)O[C@H]([C@H](C)C[C@@H]2CC[C@@H](O)[C@H](OC)C2)CC(=O)[C@H](C)/C=C(\C)[C@@H](O)[C@@H](OC)C(=O)[C@H](C)C[C@H](C)/C=C/C=C/C=C/1C	0
Nc1nc2c(c(=O)[nH]1)N(C=O)C(CNc1ccc(C(=O)N[C@@H](CCC(=O)O)C(=O)O)cc1)CN2 (stereo partly specified)	0
O=c1[nH]cnc2c1ncn2[C@H]1CC[C@@H](CO)O1	1

Query the reported HepSE_hepatitis for Hepatotoxicity; item: CN(C)CCCC1(c2ccc(F)cc2)OCc2cc(C#N)ccc21 (stereo unspecified) 1

---

# Test system: Hepatotoxicity
MEASURED_ATTRIBUTE: HepSE_jaundice
The answer should be a number; do not append a unit.

I would be grateful if you could share the reported HepSE_jaundice for CC(=O)CCCCn1c(=O)c2c(ncn2C)n(C)c1=O [PENTOXIFYLLINE] . 1

I would be grateful if you could share the reported HepSE_jaundice for CC(=O)O.NCc1ccc(S(N)(=O)=O)cc1 [MAFENIDE ACETATE] . 0

I would be grateful if you could share the reported HepSE_jaundice for O=[N+]([O-])O[C@H]1CO[C@H]2[C@@H]1OC[C@H]2O[N+](=O)[O-] [ISOSORBIDE DINITRATE] . 0

I would be grateful if you could share the reported HepSE_jaundice for CC(=O)/N=c1/sc(S(N)(=O)=O)nn1C [METHAZOLAMIDE] . 0

I would be grateful if you could share the reported HepSE_jaundice for CCN1CCN(C(=O)N[C@@H](C(=O)N[C@@H]2C(=O)N3[C@@H]2SC(C)(C)[C@@H]3C(=O)O)c2ccccc2)C(=O)C1=O [PIPERACILLIN] . 0

I would be grateful if you could share the reported HepSE_jaundice for S=P(N1CC1)(N1CC1)N1CC1 [THIOTEPA] . 0

I would be grateful if you could share the reported HepSE_jaundice for NC(=O)CC[C@H](N)C(=O)O [GLUTAMINE] . 0

I would be grateful if you could share the reported HepSE_jaundice for NCCS [CYSTEAMINE] . 0

I would be grateful if you could share the reported HepSE_jaundice for c1ccc(CC2=NCCN2)cc1 [TOLAZOLINE] . 0

I would be grateful if you could share the reported HepSE_jaundice for O=C1C(O)=C([C@H]2CC[C@H](c3ccc(Cl)cc3)CC2)C(=O)c2ccccc21 [ATOVAQUONE] . 0

I would be grateful if you could share the reported HepSE_jaundice for CN[C@H](CC(C)C)C(=O)N[C@H]1C(=O)N[C@@H](CC(N)=O)C(=O)N[C@H]2C(=O)N[C@H]3C(=O)N[C@H](C(=O)N[C@H](C(=O)O)c4cc(O)cc(O)c4-c4cc3ccc4O)[C@H](O)c3ccc(c(Cl)c3)Oc3cc2cc(c3O[C@@H]2O[C@H](CO)[C@@H](O)[C@H](O)[C@H]2O[C@H]2C[C@](C)(N)[C@H](O)[C@H](C)O2)Oc2ccc(cc2Cl)[C@H]1O [VANCOMYCIN] . 0

I would be grateful if you could share the reported HepSE_jaundice for CCS(=O)(=O)CCn1c([N+](=O)[O-])cnc1C [TINIDAZOLE] . 0

---

Listed here: items and their measured HepSE_hepatitis.
# Test system: Hepatotoxicity
The answer should be a number; do not append a unit.

Cc1[nH]c(=O)c(C#N)cc1-c1ccncc1	0
NS(=O)(=O)Cc1noc2ccccc12 [ZONISAMIDE]	0
Clc1ccc2c(c1)C(N1CCNCC1)=Nc1ccccc1O2	1

Query the reported HepSE_hepatitis for Hepatotoxicity; item: `CN(C)[C@@H]1C(O)=C(C(N)=O)C(=O)[C@@]2(O)C(O)=C3C(=O)c4c(O)cccc4[C@@](C)(O)[C@H]3[C@H](O)[C@@H]12` 0

Query the reported HepSE_hepatitis for Hepatotoxicity; item: `C[C@]12CC[C@H]3[C@@H](CCC4=CC(=O)CC[C@@]43C)[C@@H]1CC[C@@H]2O` 0

Query the reported HepSE_hepatitis for Hepatotoxicity; item: `COc1ccccc1Oc1c(NS(=O)(=O)c2ccc(C(C)(C)C)cc2)nc(-c2ncccn2)nc1OCCO` 1

---

# Tested on: Hepatotoxicity
# MEASUREMENT_CONTEXT: Liver
Listed here: items and their measured HepSE_hepatic necrosis.
The answer should be a number; do not append a unit.

# count of solved cases: 4
O=C(O)c1cc(-c2ccc(F)cc2F)ccc1O	0
CC1=C(/C=C/C(C)=C/C=C/C(C)=C/CO)C(C)(C)CCC1	0
Nc1c2c(nc3ccccc13)CCCC2	0
CNCC[C@H](Oc1cccc2ccccc12)c1cccs1	0

I would be grateful if you could share the reported HepSE_hepatic necrosis for `CN[C@H]1CC[C@@H](c2ccc(Cl)c(Cl)c2)c2ccccc21` . 0

I would be grateful if you could share the reported HepSE_hepatic necrosis for `Brc1c(NC2=NCCN2)ccc2nccnc12` . 0

I would be grateful if you could share the reported HepSE_hepatic necrosis for CC(C)NCC(O)COc1ccc(CC(N)=O)cc1 (stereo not drawn) . 0

I would be grateful if you could share the reported HepSE_hepatic necrosis for Sc1ncnc2nc[nH]c12 [MERCAPTOPURINE ANHYDROUS] . 0

I would be grateful if you could share the reported HepSE_hepatic necrosis for O=C([O-])O.[Na+] [SODIUM BICARBONATE] . 0

I would be grateful if you could share the reported HepSE_hepatic necrosis for `CN1[C@@H]2C[C@@H](OC(=O)[C@H](CO)c3ccccc3)C[C@H]1[C@@H]1O[C@@H]12` . 0

I would be grateful if you could share the reported HepSE_hepatic necrosis for `O=P(O)(O)O` . 0

---

# Tested on: Hepatotoxicity
# MEASUREMENT_CONTEXT: Liver
Listed here: items and their measured HepSE_hepatomegaly.
The answer should be a number; do not append a unit.

# count of solved cases: 6
NC[C@@H]1O[C@H](O[C@H]2[C@@H](O)[C@H](O[C@@H]3[C@@H](O)[C@H](N)C[C@H](N)[C@H]3O[C@H]3O[C@H](CN)[C@@H](O)[C@H](O)[C@H]3N)O[C@@H]2CO)[C@H](N)[C@@H](O)[C@@H]1O	0
CC(=O)O[C@H]1C[C@@H]2CC[C@@H]3[C@H](CC[C@@]4(C)[C@H]3C[C@H]([N+]3(C)CCCCC3)[C@@H]4OC(C)=O)[C@@]2(C)C[C@@H]1[N+]1(C)CCCCC1	0
O=C(O)COCCN1CCN(C(c2ccccc2)c2ccc(Cl)cc2)CC1 (configuration not stated)	0
CNCCCC12CCC(c3ccccc31)c1ccccc12	0
CC1=C(C(=O)O)N2C(=O)[C@@H](NC(=O)[C@H](N)c3ccccc3)[C@H]2SC1 [CEPHALEXIN ANHYDROUS]	0
NC(CO)(CO)CO	0

Kindly review the next compound as well.
I would be grateful if you could share the reported HepSE_hepatomegaly for `CN/C(=N/CCSCc1nc[nH]c1C)NC#N` . 0
